Source of measurements: patent US12708630B2

Experiment: Pharmacokinetic evaluation in Dog
Format: in vivo
Conditions: in vivo; Dog, PO 1.5 mg/kg
Procedure: Aza-T-dCyd was administered orally and intravenously at various concentrations to Mice, Rats and Dogs to determine the PK profile.
measurement.name: AUC(0-inf) (ng·h/mL)
Give the value, in units of ng·h/mL, as a plain number.

-- ask Give its AUC(0-inf) value. Item: Nc1ncn([C@H]2CC(O)[C@@H](CO)S2)c(=O)n1 (stereo partly shown)
-- reply 3370

###

Test: Pharmacokinetic evaluation in Dog
Format: in vivo
Settings: in vivo; Dog, PO 3.0 mg/kg; read-out: T½ (converted)
measurement.name: half-life (h)
Give the value, in units of h, as a plain number.

-- ask Give its half-life value. Item: Nc1ncn([C@H]2CC(O)[C@@H](CO)S2)c(=O)n1 (stereo partly shown)
-- reply 1.65

###

Tested on: RL95-2
Assay: drug activity profiling cytotoxicity
Format: cell-based
Conditions: Homo sapiens; RL95-2 cell line, Female GU (Uterus); read-out: Aza-T-dCyd IC50
measurement.name: IC50 (nM)
Give the value, in units of nM, as a plain number.

-- ask Lab note: need IC50 for Nc1ncn([C@H]2CC(O)[C@@H](CO)S2)c(=O)n1 (stereo partly shown) on RL95-2, anyone have it?
-- reply 705

###

Experiment: Pharmacokinetic evaluation in Dog
Format: in vivo
Settings: in vivo; Dog, PO 0.33 mg/kg
measurement.name: Cmax (ng/mL)
Give the value, in units of ng/mL, as a plain number.

-- ask Give its Cmax value. Item: Nc1ncn([C@H]2CC(O)[C@@H](CO)S2)c(=O)n1 (stereo partly shown)
-- reply 210

###

Experiment: Pharmacokinetic evaluation in Dog
Format: in vivo
Conditions: in vivo; Dog, IV 0.33 mg/kg
measurement.name: AUC(0-inf) (µg·h/mL)
Give the value, in units of µg·h/mL, as a plain number.

-- ask Give its AUC(0-inf) value. Item: Nc1ncn([C@H]2CC(O)[C@@H](CO)S2)c(=O)n1 (stereo partly shown)
-- reply 1.13

###

Test: Pharmacokinetic evaluation in Mice (Table 3)
Assay type: in vivo
Settings: mouse, in vivo; Mice, Table 3, PO 10 mg/kg
measurement.name: AUC(0-t) (ng·h/mL)
Give the value, in units of ng·h/mL, as a plain number.

-- ask Give its AUC(0-t) value. Item: Nc1ncn([C@H]2CC(O)[C@@H](CO)S2)c(=O)n1 (stereo partly shown)
-- reply 2580

###

Test system: HT-3
Experiment: drug activity profiling cytotoxicity
Type: cell-based
Details: Homo sapiens; HT-3 cell line, Female GU (Cervix); read-out: Aza-T-dCyd IC50
measurement.name: IC50
# answer = value followed by unit

-- ask Give its IC50 value. Item: Nc1ncn([C@H]2CC(O)[C@@H](CO)S2)c(=O)n1 (stereo partly shown)
-- reply 818 nM

###

Experiment: Pharmacokinetic evaluation in Dog
Type: in vivo
Settings: in vivo; Dog, PO 1.5 mg/kg
measurement.name: AUC(0-t) (ng·h/mL)
Give the value, in units of ng·h/mL, as a plain number.

-- ask Give its AUC(0-t) value. Item: Nc1ncn([C@H]2CC(O)[C@@H](CO)S2)c(=O)n1 (stereo partly shown) [Aza-T-dCyd, 4′-thio-5-aza-2′-deoxycytidine]
-- reply 3200

###

Assay: Pharmacokinetic evaluation in Dog
Type: in vivo
Conditions: in vivo; Dog, PO 3.0 mg/kg
measurement.name: Cmax (ng/mL)
Give the value, in units of ng/mL, as a plain number.

-- ask Give its Cmax value. Item: Nc1ncn([C@H]2CC(O)[C@@H](CO)S2)c(=O)n1 (stereo partly shown)
-- reply 1670

###

Assay: Pharmacokinetic evaluation in Mice (Table 3)
Type: in vivo
Details: mouse, in vivo; Mice, Table 3, PO 10 mg/kg
measurement.name: Cmax (ng/mL)
Give the value, in units of ng/mL, as a plain number.

-- ask Give its Cmax value. Item: Nc1ncn([C@H]2CC(O)[C@@H](CO)S2)c(=O)n1 (stereo partly shown)
-- reply 1930

###

Experiment: Pharmacokinetic evaluation in Dog
Assay type: in vivo
Details: in vivo; Dog, PO 3.0 mg/kg
measurement.name: AUC(0-inf)
# answer = value followed by unit

-- ask Give its AUC(0-inf) value. Item: Nc1ncn([C@H]2CC(O)[C@@H](CO)S2)c(=O)n1 (stereo partly shown)
-- reply 5620 ng·h/mL

###

Assay: Pharmacokinetic evaluation in Dog
Format: in vivo
Conditions: in vivo; Dog, PO 0.67 mg/kg; read-out: T½ (converted)
measurement.name: half-life (h)
Give the value, in units of h, as a plain number.

-- ask Give its half-life value. Item: Nc1ncn([C@H]2CC(O)[C@@H](CO)S2)c(=O)n1 (stereo partly shown)
-- reply 2.26

###

Tested on: CAMA-1
Test: drug activity profiling cytotoxicity
Type: cell-based
Details: Homo sapiens; CAMA-1 cell line, Breast; read-out: Aza-T-dCyd IC50
measurement.name: IC50

-- ask Give its IC50 value. Item: Nc1ncn([C@H]2CC(O)[C@@H](CO)S2)c(=O)n1 (stereo partly shown)
-- reply > 10 µM

###

Assay: Pharmacokinetic evaluation in Mice (Table 3)
Type: in vivo
Details: mouse, in vivo; Mice, Table 3, PO 3 mg/kg; read-out: T½ (converted)
measurement.name: half-life (min)
Give the value, in units of min, as a plain number.

-- ask Give its half-life value. Item: Nc1ncn([C@H]2CC(O)[C@@H](CO)S2)c(=O)n1 (stereo partly shown)
-- reply 49.4
